species: Rattus norvegicus; test: DrugMatrix - Regimen: Daily Repeat; assay type: toxicity, organism-based, Sprague-Dawley; parameters: regimen Daily Repeat, gender Male, age 6-8 weeks; settings: in vivo, po, 50 mg/kg, 120 h, tissue Blood, route oral GAVAGE, dose level Low, time 5 day, vehicle .5 % CMC
For each entry below, report its NEUTROPHIL value.
Answer format: number, then unit.

Problem: Could you share which NEUTROPHIL value was measured for Cc1cccc(C)c1OCC(C)N (centres undefined) [MEXILETINE] ?
Solution: 8.67%

Problem: Could you share which NEUTROPHIL value was measured for NC1CCN(c2nc3c(cc2F)c(=O)c(C(=O)O)cn3-c2ccc(F)cc2F)C1 (centres undefined) [TOSUFLOXACIN] ?
Solution: 6.67%

Problem: Could you share which NEUTROPHIL value was measured for CCN1CCC[C@H]1CNC(=O)c1cc(S(N)(=O)=O)ccc1OC [LEVOSULPIRIDE] ?
Solution: 16.33%

Problem: Could you share which NEUTROPHIL value was measured for CN(C)[C@@H]1C(O)=C(C(N)=O)C(=O)[C@@]2(O)C(O)=C3C(=O)c4c(O)ccc(Cl)c4[C@@](C)(O)[C@H]3C[C@@H]12 [CHLORTETRACYCLINE] ?
Solution: 6.67%

###

species on record: Rattus norvegicus; assay: DrugMatrix - Regimen: Daily Repeat; type: toxicity, organism-based, Sprague-Dawley; parameters: regimen Daily Repeat, gender Male, age 6-8 weeks; conditions: in vivo, po, 2000 mg/kg, 120 h, tissue Blood, route oral GAVAGE, dose level High, time 5 day, vehicle .5 % CMC
Mark Criterion met for reported ERYTHROCYTE COUNT of 6 x10E6/uL or greater; mark Criterion not met for anything smaller.

Problem: Say whether O=C1Nc2ccc(Cl)cc2C(c2ccccc2Cl)=NC1O (stereo unspecified) [LORAZEPAM] shows ERYTHROCYTE COUNT of 6 x10E6/uL or more.
Solution: Criterion met

Problem: Say whether CN/C(=N/CCSCc1nc[nH]c1C)NC#N [CIMETIDINE] shows ERYTHROCYTE COUNT of 6 x10E6/uL or more.
Solution: Criterion not met

Problem: Say whether CC1(C)S[C@@H]2[C@H](NC(=O)[C@H](N)c3ccccc3)C(=O)N2[C@H]1C(=O)O [AMPICILLIN] shows ERYTHROCYTE COUNT of 6 x10E6/uL or more.
Solution: Criterion not met

Problem: Say whether COc1cc2nc(N3CCN(C(=O)c4ccco4)CC3)nc(N)c2cc1OC [PRAZOSIN] shows ERYTHROCYTE COUNT of 6 x10E6/uL or more.
Solution: Criterion not met

Problem: Say whether NC1CCN(c2nc3c(cc2F)c(=O)c(C(=O)O)cn3-c2ccc(F)cc2F)C1 (stereo unspecified) [TOSUFLOXACIN] shows ERYTHROCYTE COUNT of 6 x10E6/uL or more.
Solution: Criterion met

###

species: Rattus norvegicus; test: DrugMatrix - Regimen: Daily Repeat; assay type: toxicity, organism-based, Sprague-Dawley; design: regimen Daily Repeat, gender Male, age 6-8 weeks; conditions: in vivo, po, 0 mg/kg, 120 h, tissue Plasma, route oral GAVAGE, dose level Control, time 5 day, vehicle 100 % WATER
Mark 1 for reported TOTAL BILIRUBIN of 0.2 mg/dL or greater; mark -1 for anything smaller.

Problem: Say whether `CN(C)CC[C@@H](c1ccc(Cl)cc1)c1ccccn1` shows TOTAL BILIRUBIN of 0.2 mg/dL or more.
Solution: 1

Problem: Say whether O.O.O.O.O.O.[Cl-].[Cl-].[Sr+2] [STRONTIUM CHLORIDE HEXAHYDRATE] shows TOTAL BILIRUBIN of 0.2 mg/dL or more.
Solution: -1

Problem: Say whether CC(C)(C)CC(C)(C)c1ccc(OCCOCC[N+](C)(C)Cc2ccccc2)cc1.[Cl-] [BENZETHONIUM CHLORIDE] shows TOTAL BILIRUBIN of 0.2 mg/dL or more.
Solution: 1

Problem: Say whether CCN(CC)CCNC(=O)c1cc(S(C)(=O)=O)ccc1OC [TIAPRIDE] shows TOTAL BILIRUBIN of 0.2 mg/dL or more.
Solution: -1

Problem: Say whether `Cn1c(=O)c2[nH]cnc2n(C)c1=O.O` shows TOTAL BILIRUBIN of 0.2 mg/dL or more.
Solution: 1

Problem: Say whether `CS(=O)(=O)c1ccc([C@@H](O)[C@@H](CO)NC(=O)C(Cl)Cl)cc1` shows TOTAL BILIRUBIN of 0.2 mg/dL or more.
Solution: -1

Problem: Say whether `Oc1cccc(O)c1O` shows TOTAL BILIRUBIN of 0.2 mg/dL or more.
Solution: 1

Problem: Say whether `C[C@]12C=CC(=O)C=C1CC[C@@H]1[C@@H]2[C@@H](O)C[C@@]2(C)[C@H]1CC[C@]2(O)C(=O)CO` shows TOTAL BILIRUBIN of 0.2 mg/dL or more.
Solution: -1

Problem: Say whether NNc1nncc2ccccc12 [HYDRALAZINE] shows TOTAL BILIRUBIN of 0.2 mg/dL or more.
Solution: 1

Problem: Say whether `Cc1ccc(NC(=O)c2ccc(CN3CCN(C)CC3)cc2)cc1Nc1nccc(-c2cccnc2)n1` shows TOTAL BILIRUBIN of 0.2 mg/dL or more.
Solution: -1

Problem: Say whether CC(C)NCC(O)c1ccc(NS(C)(=O)=O)cc1 (stereo not drawn) shows TOTAL BILIRUBIN of 0.2 mg/dL or more.
Solution: 1

Problem: Say whether CN(C)CCOC(c1ccccc1)c1ccccc1 [DIPHENHYDRAMINE] shows TOTAL BILIRUBIN of 0.2 mg/dL or more.
Solution: 1

###

For each entry below, report its MONOCYTE value.
species: Rattus norvegicus; assay: DrugMatrix - Regimen: Daily Repeat; format: toxicity, organism-based, Sprague-Dawley; parameters: regimen Daily Repeat, gender Male, age 6-8 weeks; details: in vivo, sc, 0 mg/kg, 72 h, tissue Blood, route subcutaneous, dose level Control, time 3 day, […]
Numbers only; they are read as %.

Problem: Could you share which MONOCYTE value was measured for CCN(CC)CCOCCC1=CCC2CC1C2(C)C (stereo not given) [MYRTECAINE] ?
Solution: 0.5

Problem: Could you share which MONOCYTE value was measured for CCC(=O)O[C@]1(C(=O)CCl)[C@@H](C)C[C@H]2[C@@H]3CCC4=CC(=O)C=C[C@]4(C)[C@@]3(F)[C@@H](O)C[C@@]21C [CLOBETASOL PROPIONATE] ?
Solution: 2

Problem: Could you share which MONOCYTE value was measured for Oc1c(Cl)cc(Cl)c(Cl)c1Cc1c(O)c(Cl)cc(Cl)c1Cl [HEXACHLOROPHENE] ?
Solution: 2.67

Problem: Could you share which MONOCYTE value was measured for CC(C)(C)CC(C)(C)c1ccc(OCCOCC[N+](C)(C)Cc2ccccc2)cc1.[Cl-] [BENZETHONIUM CHLORIDE] ?
Solution: 2.67

Problem: Could you share which MONOCYTE value was measured for O=C(Nc1ccc(Br)cc1)c1cc(Br)cc(Br)c1O [TRIBROMSALAN] ?
Solution: 2

###

organism: Rattus norvegicus; assay: DrugMatrix - Regimen: Daily Repeat; format: toxicity, organism-based, Sprague-Dawley; parameters: regimen Daily Repeat, gender Male, age 6-8 weeks; settings: in vivo, po, 0 mg/kg, 72 h, tissue Plasma, route oral GAVAGE, dose level Control, time 3 day, vehicle 100 % WATER
Endpoint: BLOOD UREA NITROGEN (mg/dL)
Numbers only; they are read as mg/dL.

Problem: Could you share which BLOOD UREA NITROGEN value was measured for CC(C)NCC(O)c1ccc(NS(C)(=O)=O)cc1 (stereo not drawn) [SOTALOL] ?
Solution: 15

Problem: Could you share which BLOOD UREA NITROGEN value was measured for CC(C)(C)CC(C)(C)c1ccc(OCCOCC[N+](C)(C)Cc2ccccc2)cc1.[Cl-] [BENZETHONIUM CHLORIDE] ?
Solution: 16.5

Problem: Could you share which BLOOD UREA NITROGEN value was measured for Cn1c(=O)c2[nH]cnc2n(C)c1=O.O [THEOPHYLLINE] ?
Solution: 15.5

Problem: Could you share which BLOOD UREA NITROGEN value was measured for CN1[C@@H]2CC[C@H]1C[C@@H](OC(=O)C(CO)c1ccccc1)C2 (stereo partly drawn) [ATROPINE] ?
Solution: 11

Problem: Could you share which BLOOD UREA NITROGEN value was measured for Cc1ccc(NC(=O)c2ccc(CN3CCN(C)CC3)cc2)cc1Nc1nccc(-c2cccnc2)n1 [IMATINIB] ?
Solution: 15.67

Problem: Could you share which BLOOD UREA NITROGEN value was measured for CCN(CC)CCNC(=O)c1cc(S(C)(=O)=O)ccc1OC [TIAPRIDE] ?
Solution: 15.67

Problem: Could you share which BLOOD UREA NITROGEN value was measured for NNc1nncc2ccccc12 [HYDRALAZINE] ?
Solution: 16.5

Problem: Could you share which BLOOD UREA NITROGEN value was measured for CS(=O)(=O)c1ccc([C@@H](O)[C@@H](CO)NC(=O)C(Cl)Cl)cc1 [THIAMPHENICOL] ?
Solution: 15.67

Problem: Could you share which BLOOD UREA NITROGEN value was measured for O.O.O.O.O.O.[Cl-].[Cl-].[Sr+2] [STRONTIUM CHLORIDE HEXAHYDRATE] ?
Solution: 15.67

Problem: Could you share which BLOOD UREA NITROGEN value was measured for CN(C)CCOC(c1ccccc1)c1ccccc1 [DIPHENHYDRAMINE] ?
Solution: 16.5

Problem: Could you share which BLOOD UREA NITROGEN value was measured for CN(C)CC[C@@H](c1ccc(Cl)cc1)c1ccccn1 [DEXCHLORPHENIRAMINE] ?
Solution: 12.67

Problem: Could you share which BLOOD UREA NITROGEN value was measured for Oc1cccc(O)c1O [PYROGALLOL] ?
Solution: 14.67

Problem: Could you share which BLOOD UREA NITROGEN value was measured for C[C@]12C=CC(=O)C=C1CC[C@@H]1[C@@H]2[C@@H](O)C[C@@]2(C)[C@H]1CC[C@]2(O)C(=O)CO [PREDNISOLONE] ?
Solution: 14.33
